Ref: patent US9468661B2

experimental target: human factor D (Homo sapiens (Human), UniProt P00746)
Sequence (P00746 26-253): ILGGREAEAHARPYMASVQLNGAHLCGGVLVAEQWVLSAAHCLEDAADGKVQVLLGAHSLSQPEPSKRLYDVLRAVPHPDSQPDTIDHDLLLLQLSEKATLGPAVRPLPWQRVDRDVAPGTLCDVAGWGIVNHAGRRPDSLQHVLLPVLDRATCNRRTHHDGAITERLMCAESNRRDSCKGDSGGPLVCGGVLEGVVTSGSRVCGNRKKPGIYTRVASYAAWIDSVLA
protocol notes: biochemical
Type: biochemical
condition label: Factor D inhibition data using Method 1; recombinant human factor D 10 nM, substrate Z-Lys-thiobenzyl, fluorescence; read-out: IC50
result type: IC50 (nM)
Record the value in nM, omitting the unit from your answer.

Query block: Give a short answer stating reported IC50 for `CO[C@H]1[C@@H](C(=O)NC[C@H]2CC2(Cl)Cl)N(C(=O)Cn2nc(C(N)=O)c3ccccc32)C[C@@H]1F` .
Result block: 112

Query block: Could you please provide reported IC50 for CC(=O)c1nn(CC(=O)N2[C@@H]3C[C@@H]3C[C@H]2C(=O)NCC2CCCC(C(F)(F)F)C2)c2cnccc12 (stereo partly shown) ? Thanks!
Result block: 334

Query block: Retrieve IC50 measured for `C[C@@H](NC(=O)[C@@H]1C[C@@]2(CO)C[C@H]2N1C(=O)Cn1nc(C(N)=O)c2ccccc21)[C@H]1CC1(Cl)Cl` and print it.
Result block: 17

Query block: # return recorded IC50 for input CC(=O)c1nn(CC(=O)N2[C@@H]3C[C@@H]3C[C@H]2C(=O)NCC2CC2(Cl)Cl)c2ncccc12 (stereo partly shown)
Result block: 163

Query block: # return recorded IC50 for input NC(=O)c1nn(CC(=O)N2[C@@H]3C[C@@H]3C[C@H]2C(=O)NCC2CC2(F)F)c2ccccc12 (stereo partly shown)
Result block: 428

Query block: Supply measured IC50 of `Cc1ccc2c(C(N)=O)nn(CC(=O)N3[C@@H]4C[C@@H]4C[C@H]3C(=O)NC[C@H]3CC3(Cl)Cl)c2c1` in your reply.
Result block: 74

Query block: Identify measured IC50 corresponding to `CO[C@H]1[C@@H](C(=O)NC[C@H]2CC2(Cl)Cl)N(C(=O)Cn2nc(C(N)=O)c3ccc(Cl)cc32)C[C@@H]1F`
Result block: 51
